B1: KCNG1 (parent)
chain: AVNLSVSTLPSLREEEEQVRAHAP

Variants of: B1
METHOD_SUMMARY: protein stability index of a GFP-peptide fusion (GPS, HEK-293T) (PSI 1-6); higher = more stable;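 also: lentivirally expressed fusions sorted by FACS into six bins by GFP to DsRed ratio, PSI derived from sequencing read proportions per bin multiplied by bin number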
CONDITION_INFO: c terminus: a fixed tail appended
Answer each item with its documented protein stability index.
Numbers only.

Solved cases below.
AVNLSVSTLPSLRESEEQVRAHAP [E15S] | 4.8
AVNLSVSTLPSEREEEEQVRAHAP [L12E] | 5.62
AVNLSVSTLNSLREEEEQVRAHAP [P10N] | 4.7
GVNLSVSTLPSLREEEEQVRAHAP [A1G] | 4.96
AVNLSVSTLPSLREEEEQVRKHAP [A21K] | 4.64
AVNLHVSTLPSLREEEEQVRAHAP [S5H] | 4.71

Respectfully, I request protein stability index for each entry included below.
1. SVNLSVSTLPSLREEEEQVRAHAP [A1S]
2. AVNLSVSTLPSLREEEKQVRAHAP [E17K]
3. AVNLSVSTLPSLKEEEEQVRAHAP [R13K]
4. AVNLDVSTLPSLREEEEQVRAHAP [S5D]
5. AVNLSVSTLPSLREEEEQVRAHYP [A23Y]
6. AVNLSVSTLPSLREEEEQVRAHDP [A23D]
7. AVNISVSTLPSLREEEEQVRAHAP [L4I]

Result string:
4.82
4.43
4.85
5.24
4.3
5.3
4.8

Hi! Can you tell me protein stability index for each of these variants?
1. AVNLSVSTLPSLREEEEQVRAHQP [A23Q]
2. AVNLSVSTLPSLREEEEQVRAHEP [A23E]
3. AVNLSVSTLPSLFEEEEQVRAHAP [R13F]

Result string:
5.27
4.82
4.78

# return protein stability index for each item in the list
1. RVNLSVSTLPSLREEEEQVRAHAP [A1R]
2. AVNLSVSTLPSLREEEEQYRAHAP [V19Y]

Result string:
1. 5.31
2. 4.71

Every entry's value here was drawn from the supplement of paper PMC10567573.
